Ref: patent US12479927B2

target: Escherichia coli β-galactosidase (Escherichia coli, UniProt P00722); experiment: in vitro; conditions: recombinant enzyme, pH 7.4
Sequence (P00722 2-1024): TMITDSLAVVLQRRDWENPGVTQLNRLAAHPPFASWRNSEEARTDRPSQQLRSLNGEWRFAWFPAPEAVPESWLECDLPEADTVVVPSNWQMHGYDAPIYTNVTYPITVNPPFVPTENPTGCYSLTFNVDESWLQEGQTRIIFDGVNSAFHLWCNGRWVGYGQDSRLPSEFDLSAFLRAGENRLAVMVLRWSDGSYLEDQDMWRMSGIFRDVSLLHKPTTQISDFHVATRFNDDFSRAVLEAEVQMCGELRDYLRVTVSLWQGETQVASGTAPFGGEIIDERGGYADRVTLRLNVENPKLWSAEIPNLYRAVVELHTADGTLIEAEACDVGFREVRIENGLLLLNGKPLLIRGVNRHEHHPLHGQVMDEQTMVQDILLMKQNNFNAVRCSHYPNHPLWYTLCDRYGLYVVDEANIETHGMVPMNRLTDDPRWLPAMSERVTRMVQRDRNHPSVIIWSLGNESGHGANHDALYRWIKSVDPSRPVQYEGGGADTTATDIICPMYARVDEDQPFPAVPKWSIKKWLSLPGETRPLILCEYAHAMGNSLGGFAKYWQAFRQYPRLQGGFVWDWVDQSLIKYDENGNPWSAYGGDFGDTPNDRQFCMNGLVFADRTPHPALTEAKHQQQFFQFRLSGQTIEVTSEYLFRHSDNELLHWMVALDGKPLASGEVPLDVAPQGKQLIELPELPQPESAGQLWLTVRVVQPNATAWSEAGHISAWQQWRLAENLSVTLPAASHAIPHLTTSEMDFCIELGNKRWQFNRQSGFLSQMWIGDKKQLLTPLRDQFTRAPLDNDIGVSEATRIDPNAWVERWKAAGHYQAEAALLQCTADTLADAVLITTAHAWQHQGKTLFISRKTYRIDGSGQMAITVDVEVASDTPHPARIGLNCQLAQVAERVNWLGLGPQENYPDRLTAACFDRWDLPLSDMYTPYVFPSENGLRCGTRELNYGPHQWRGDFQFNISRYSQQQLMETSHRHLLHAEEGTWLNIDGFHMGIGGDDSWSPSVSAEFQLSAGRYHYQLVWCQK
Catalogue of molecules with associated half-life at 100 μM

Recorded half-life at 100 μM, per entry:
molecule	half-life at 100 μM
O=C(Cc1cccnc1)OCc1ccc(OS(=O)(=O)Oc2ccccc2O[C@@H]2O[C@H](CO)[C@H](O)[C@H](O)[C@H]2O)cc1 [Compound A-10]	< 5 min
CC(C)(C)OC(=O)NCCN(CC(=O)O)C(=O)Cn1cnc2c(OCc3ccc(OS(=O)(=O)Oc4ccccc4OC4O[C@H](CO)[C@H](O)[C@H](O)[C@H]4O)cc3)nc(N)nc21 (some centres unmarked) [Compound A-18]	< 5 min
CC(C)(C)OC(=O)NC(Cc1ccc(OS(=O)(=O)Oc2cc(C(=O)NCCOCCOCCOCCN=[N+]=[N-])ccc2O[C@@H]2O[C@H](CO)[C@H](O)[C@H](O)[C@H]2O)cc1)C(=O)O (some centres unmarked) [Compound A-2]	3.71 min
COc1ccc(/C=C\c2cc(OC)c(OC)c(OC)c2)cc1OS(=O)(=O)Oc1cc(C(=O)NCCOCCOCCOCCN=[N+]=[N-])ccc1O[C@@H]1O[C@H](CO)[C@H](O)[C@H](O)[C@H]1O [Compound B-7]	< 5 min

Moving on to the next molecule.
Challenge: Observed half-life at 100 μM on Escherichia coli β-galactosidase (Escherichia coli, UniProt P00722) for CC(C)(C)OC(=O)N[C@H](Cc1ccc(OS(=O)(=O)Oc2ccccc2O[C@@H]2O[C@H](COC3O[C@H](C(=O)O)[C@@H](O)[C@H](O)[C@H]3O)[C@H](O)[C@H](O)[C@H]2O)cc1)C(=O)O (some centres unmarked) [Compound A-5] , please.
Response given: < 5 min

====

target: Escherichia coli β-galactosidase (Escherichia coli); test: in vitro; settings: recombinant enzyme, pH 7.4
endpoint: half-life at 100 μM

Recorded half-life at 100 μM, per entry:
compound	target_or_system	half-life at 100 μM
CC(C)(C)OC(=O)NC(Cc1ccc(OS(=O)(=O)Oc2cc3ccccc3cc2O[C@@H]2O[C@H](CO)[C@H](O)[C@H](O)[C@H]2O)cc1)C(=O)O (some centres unmarked)	Escherichia coli β-galactosidase (Escherichia coli)	< 5 min
CC(C)(C)OC(=O)NC(Cc1ccc(OS(=O)(=O)Oc2cc(CCC(=O)NCCOCCOCCOCCN=[N+]=[N-])ccc2OC2O[C@H](CO)[C@H](O)[C@H](O)[C@H]2O)cc1)C(=O)O (some centres unmarked)	Escherichia coli β-galactosidase (Escherichia coli)	4.6 min
CC(OCN(CCN(C)C)C(=O)OCc1ccc(OS(=O)(=O)Oc2ccccc2OC2O[C@H](CO)[C@H](O)[C@H](O)[C@H]2O)cc1)c1ccccc1 (some centres unmarked)	Escherichia coli β-galactosidase (Escherichia coli)	< 1 min
CSCC[C@H](NC(=O)[C@H](Cc1ccccc1)NC(=O)CNC(=O)CNC(=O)[C@@H](N)Cc1ccc(OS(=O)(=O)Oc2ccccc2OC2O[C@H](CO)[C@H](O)[C@H](O)[C@H]2O)cc1)C(=O)O (some centres unmarked)	Escherichia coli β-galactosidase (Escherichia coli)	< 5 min

Challenge: Item `C[C@]12CC[C@@H]3c4ccc(OS(=O)(=O)Oc5cc(C(=O)NCCOCCOCCOCCN=[N+]=[N-])ccc5O[C@@H]5O[C@H](CO)[C@H](O)[C@H](O)[C@H]5O)cc4CC[C@H]3[C@@H]1CC[C@@H]2O` has what recorded half-life at 100 μM?
Response given: < 5 min
